Reference source: PubChem BioAssay AID2060501

Tested on: 282377-053-R-J1-PDC complex spheroids, viability;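 further: spheroids exposed to compounds for 7 days before readout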
Test: Anticancer human tumor 282377-053-R-J1-PDC patient-derived colon adenocarcinoma cell line growth inhibition [GQUAD]
Conditions: curve of first compound; second compound 1 µM
Excerpt: DNA G-quadruplex Stabilizer Agents in Combinations in Complex Spheroids A high-throughput screen of multi-cell type tumor spheroids was designed to identify active combinations of DNA G-quadruplex stabilizer agents and targeted small molecules. […] Compounds. […] If the clinical Cmax for an agent had not been determined, the highest concentration tested was 10 microM. […]
pIC50: −log10 of the molar value.
Parameter threshold = 6. Response is t when pIC50 meets or exceeds it, else f.

Prompt: Does the compound O=C(NO)c1cnc(N2CCN(S(=O)(=O)c3ccc4ccccc4c3)CC2)nc1 + Cc1[nH]c2ccc(F)cc2c1-c1nc2c3cccnc3c3ncccc3c2[nH]1 have recorded pIC50 that is 6 or more?
Completion: t

Prompt: Another compound: CCCS(=O)(=O)Nc1ccc(F)c(C(=O)c2c[nH]c3ncc(-c4ccc(Cl)cc4)cc23)c1F + Cc1[nH]c2ccc(F)cc2c1-c1nc2c3cccnc3c3ncccc3c2[nH]1
Completion: f

Prompt: Now this one: C#Cc1c(F)ccc2cc(O)cc(-c3ncc4c(N5CC6CCC(C5)N6)nc(OCC56CCCN5CC(F)C6)nc4c3F)c12 (stereo unspecified) + Cc1cnc(CNC(=O)c2c(=O)c3ccc(N4CCCN(C)CC4)nc3n3c2sc2ccccc23)cn1
Completion: f

Prompt: Could you do the same for Cc1[nH]c2ccccc2c1CCNCc1ccc(/C=C/C(=O)NO)cc1 + Cc1cnc(CNC(=O)c2c(=O)c3ccc(N4CCCN(C)CC4)nc3n3c2sc2ccccc23)cn1 , please?
Completion: t

Prompt: Another: O=C(c1cc(Cc2n[nH]c(=O)c3ccccc23)ccc1F)N1CCN(C(=O)C2CC2)CC1 + CN(C)c1ccc(Nc2c3ccc(NC(=O)CCN4CCCC4)cc3nc3cc(NC(=O)CCN4CCCC4)ccc23)cc1
Completion: f

Prompt: Also, CC1COCCN1c1cc(C2(S(C)(=N)=O)CC2)nc(-c2ccnc3[nH]ccc23)n1 (stereo unspecified) + Cc1cnc(CNC(=O)c2c(=O)c3ccc(N4CCCN(C)CC4)nc3n3c2sc2ccccc23)cn1 please.
Completion: f

Prompt: Can you check COc1ncnc(C2CC2)c1-c1ncc2cnn(Cc3ccc(-c4nc(C(F)(F)F)cn4C(C)C)cc3)c2n1 + Cc1cnc(CNC(=O)c2c(=O)c3ccc(N4CCCN(C)CC4)nc3n3c2sc2ccccc23)cn1 next?
Completion: f

Prompt: C=CCn1c(=O)c2cnc(Nc3ccc(N4CCN(C)CC4)cc3)nc2n1-c1cccc(C(C)(C)O)n1 + Cc1[nH]c2ccc(F)cc2c1-c1nc2c3cccnc3c3ncccc3c2[nH]1 , same question.
Completion: f

Prompt: Would you mind doing COc1ccc([C@@H](O)c2cc(-c3ncnc4cc(N5CCOCC5)ccc34)c(F)cc2Cl)nn1 + Cc1[nH]c2ccc(F)cc2c1-c1nc2c3cccnc3c3ncccc3c2[nH]1 as well?
Completion: f

Prompt: Another compound: CC1COCCN1c1cc(C2(S(C)(=N)=O)CC2)nc(-c2ccnc3[nH]ccc23)n1 (stereo unspecified) + Cc1[nH]c2ccc(F)cc2c1-c1nc2c3cccnc3c3ncccc3c2[nH]1
Completion: f

Prompt: Consider next the compound C#Cc1c(F)ccc2cc(O)cc(-c3ncc4c(N5CC6CCC(C5)N6)nc(OCC56CCCN5CC(F)C6)nc4c3F)c12 (stereo unspecified) + CN(C)c1ccc(Nc2c3ccc(NC(=O)CCN4CCCC4)cc3nc3cc(NC(=O)CCN4CCCC4)ccc23)cc1 in the same way.
Completion: f

Prompt: Also Nc1ccn(C2OC(CO)C(O)C2(F)F)c(=O)n1 (stereo unspecified) + Cc1[nH]c2ccc(F)cc2c1-c1nc2c3cccnc3c3ncccc3c2[nH]1 , if possible.
Completion: t

Prompt: Would you mind doing CC1COCCN1c1cc(-c2ccnn2C)c2ccnc(-c3ccn[nH]3)c2n1 (stereo unspecified) + Cc1[nH]c2ccc(F)cc2c1-c1nc2c3cccnc3c3ncccc3c2[nH]1 as well?
Completion: t

Prompt: Try the compound CC(=O)O[C@H]1C(=O)[C@@]2(C)[C@H]([C@H](OC(=O)c3ccccc3)[C@]3(O)C[C@H](OC(=O)[C@H](O)[C@@H](NC(=O)c4ccccc4)c4ccccc4)C(C)=C1C3(C)C)[C@]1(OC(C)=O)CO[C@@H]1C[C@@H]2O + CN(C)c1ccc(Nc2c3ccc(NC(=O)CCN4CCCC4)cc3nc3cc(NC(=O)CCN4CCCC4)ccc23)cc1
Completion: t
